SYSTEM_UNDER_TEST: Free fatty acid receptor 1 (Rattus norvegicus, UniProt Q8K3T4)
Sequence (Q8K3T4 whole entry): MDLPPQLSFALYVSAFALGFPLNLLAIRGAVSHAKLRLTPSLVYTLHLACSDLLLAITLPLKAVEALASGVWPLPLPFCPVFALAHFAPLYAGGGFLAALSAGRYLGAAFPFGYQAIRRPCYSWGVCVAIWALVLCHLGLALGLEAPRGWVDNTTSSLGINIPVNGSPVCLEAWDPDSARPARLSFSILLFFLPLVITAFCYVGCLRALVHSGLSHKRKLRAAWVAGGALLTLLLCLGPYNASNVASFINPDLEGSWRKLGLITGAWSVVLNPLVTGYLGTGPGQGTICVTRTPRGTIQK
TEST_DETAILS: Displacement of 3-[4-({2',6'-dimethyl-6-[(4-[3H])-phenylmethoxy]biphenyl-3-yl}methoxy)phenyl] propanoic acid from rat GPR40 receptor expressed in CHO cells after 90 mins by scintillation counting in presence of 0.2% BSA
pKi: −log10 of the molar value.
OBSERVATION_TYPE: pKi

Worked examples follow.
Cc1ccc2ccccc2c1-c1cccc(COc2ccc3c(c2)OCC3CC(=O)O)c1 (stereo not given); 6.33
COc1ccc(COc2ccc3c(c2)OCC3CC(=O)O)cc1-c1c(C)cccc1C (stereo not given); 5.80
CCOCCOc1cc(C)c(-c2cccc(COc3ccc4c(c3)COC4CC(=O)O)c2)c(C)c1 (stereo not given); 7.17
CCOCCOc1cc(C)c(-c2cccc(COc3ccc4c(c3)OCC4CC(=O)O)c2)c(C)c1 (stereo not given); 6.70

a = Cc1cc(C)c(-c2cccc(COc3ccc4c(c3)OCC4CC(=O)O)c2)c(C)c1 (stereo not given)
b = Cc1ccc(-c2cccc(COc3ccc4c(c3)OCC4CC(=O)O)c2)c(C)c1 (stereo not given)
query: Higher pKi: a or b ? Indicate which entry you chose by stating its label.
result: a
(a: 6.89, b: 5.80)

----------
SYSTEM_UNDER_TEST: Free fatty acid receptor 1 (Homo sapiens)
Sequence (O14842 whole entry): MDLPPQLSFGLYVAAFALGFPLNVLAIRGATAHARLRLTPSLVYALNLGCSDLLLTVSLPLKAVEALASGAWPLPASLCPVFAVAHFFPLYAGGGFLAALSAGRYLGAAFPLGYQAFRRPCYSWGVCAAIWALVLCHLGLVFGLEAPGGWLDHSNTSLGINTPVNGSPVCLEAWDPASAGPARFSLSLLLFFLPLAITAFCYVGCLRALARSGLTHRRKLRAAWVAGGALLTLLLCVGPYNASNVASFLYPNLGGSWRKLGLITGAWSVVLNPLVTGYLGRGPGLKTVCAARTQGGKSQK
TEST_DETAILS: Displacement of 3-[4-({2',6'-dimethyl-6-[(4-[3H])-phenylmethoxy]biphenyl-3-yl}methoxy)phenyl] propanoic acid from human GPR40 receptor expressed in CHO cells after 90 mins by scintillation counting in presence of 0.2% BSA
pKi: −log10 of the molar value.
OBSERVATION_TYPE: pKi

Worked examples follow.
Cc1ccc(-c2cccc(COc3ccc4c(c3)OCC4CC(=O)O)c2)c(C)c1 (stereo not drawn); 7.24
Cc1cc(C)c(-c2cccc(COc3ccc4c(c3)OCC4CC(=O)O)c2)c(C)c1 (stereo not drawn); 7.44
CCOCCOc1cc(C)c(-c2cccc(COc3ccc4c(c3)COC4CC(=O)O)c2)c(C)c1 (stereo not drawn); 6.41
CCOCCOc1cc(C)c(-c2cccc(COc3ccc4c(c3)CCC(CC(=O)O)C4)c2)c(C)c1 (stereo not drawn); 5.68
CCOCCOc1cc(C)c(-c2cccc(CNc3ccc4c(c3)OCC4CC(=O)O)c2)c(C)c1 (stereo not drawn); 7.37

I = Cc1cccc(C)c1-c1cccc(COc2ccc3c(c2)CC3CC(=O)O)c1 (stereo not drawn)
II = O=C(O)CC1COc2cc(OCc3cccc(-c4ccc5sccc5c4)c3)ccc21 (stereo not drawn)
III = Cc1ccc2ccccc2c1-c1cccc(COc2ccc3c(c2)OCC3CC(=O)O)c1 (stereo not drawn)
IV = CCOCCOc1cc(C)c(-c2cccc(COc3ccc4c(c3)CCC(C(=O)O)C4)c2)c(C)c1 (stereo not drawn)
query: // ascending sort on recorded pKi Quick reminder: the answer is the labels in the order asked.
result: I, II, IV, III
(I: 5.92, II: 6.24, IV: 6.55, III: 7.39)

----------
SYSTEM_UNDER_TEST: Free fatty acid receptor 1 (Rattus norvegicus)
TEST_DETAILS: Displacement of 3-[4-({2',6'-dimethyl-6-[(4-[3H])-phenylmethoxy]biphenyl-3-yl}methoxy)phenyl] propanoic acid from rat GPR40 receptor expressed in CHO cells after 90 mins by scintillation counting in presence of 0.2% BSA
OBSERVATION_TYPE: Ki

CCOCCOc1cc(C)c(-c2cccc(COc3ccc4c(c3)CC(CC(=O)O)C4)c2)c(C)c1 (centres undefined); > 10 µM

query: # lookup: Ki of Cc1cccc(C)c1-c1cc(COc2ccc3c(c2)OCC3CC(=O)O)ccc1OCc1ccccc1 (centres undefined)
result: 0.17 µM

query: Thanks! And CCOCCOc1cc(C)c(-c2cccc(COc3ccc4c(c3)CC(=O)N4CC(=O)O)c2)c(C)c1 ?
result: > 10 µM

query: Thanks! And Cc1cc(OCc2ccccc2)cc(C)c1-c1cccc(COc2ccc3c(c2)OCC3CC(=O)O)c1 (centres undefined) ?
result: 0.1 µM
